experiment: MELAS cybrid and Rieske KO viability enhancers – cell-based, MELAS cybrids, Rieske KO mouse fibroblasts, CellTiter-Glo, primary screen (AID 1508586); details: Rieske KO mouse fibroblast survival, low glucose, CellTiter-Glo 72 h;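 note: test concentration not given here; z relative to plate mean and SD of compound and empty wells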
Bridge positions count the residues as written; N and C are the ends. Square brackets hold non-standard residues; d marks the D form. Peptide text beside a SMILES is read from it. * marks the point of attachment. X2 = CCC(C)C(N)C1=NC(C(=O)*)CS1; dOrn = NCCC[C@@H](N)C(=O)O
MEASURE NAME: z-score

# COMPOUND, MEASURE NAME, RESULT
records = [
    ("Nc1nc(N)c2nc(-c3cccc(O)c3)c(-c3cccc(O)c3)nc2n1", "z-score", 0.936),
    ("Cn1cnc(=N)c2[nH]cnc21", "z-score", -0.808),
    ("CCCNS(=O)(=O)Nc1ncnc(OCCOc2ncc(Br)cn2)c1-c1ccc(Br)cc1", "z-score", -0.0447),
    ("COC(=O)Nc1ccc(-c2nc(N3CCOCC3)c3cnn(C4CCN(C(=O)OC)CC4)c3n2)cc1", "z-score", 0.522),
    ("NC(N)=NCc1cccc(I)c1", "z-score", -0.101),
    ("Cc1ccc(-n2[nH]c(C)c(N=Nc3cccc(-c4cccc(C(=O)O)c4)c3O)c2=O)cc1C", "z-score", -0.0982),
    ("COc1ccc(C(=O)Nc2sc3c(c2C(N)=O)CCCC3)cc1OC", "z-score", 0.823),
    ("CCN(CC)CCCCNc1ncc2cc(-c3cc(OC)cc(OC)c3)c(NC(=O)NC(C)(C)C)nc2n1", "z-score", 0.5),
    ("CCC(C)C(N)C1=NC(C(=O)N[C@@H](CC(C)C)C(=O)N[C@H](CCC(=O)O)C(=O)N[C@H](C(=O)N[C@H]2CCCCNC(=O)[C@H](CC(N)=O)NC(=O)[C@@H](CC(=O)O)NC(=O)[C@H](Cc3cnc[nH]3)NC(=O)[C@@H](Cc3ccccc3)NC(=O)[C@H]([C@@H](C)CC)NC(=O)[C@@H](CCCN)NC2=O)[C@@H](C)CC)CS1 (stereo partly drawn) (X2-L[dE]IK[dOrn]I[dF]H[dD]N; lactam 4-C)", "z-score", -0.0886),
    ("CC(C)c1cnn2c(NCc3ccccc3)cc(NCCCCCCN)nc12", "z-score", -0.75),
    ("Cc1c(F)cc(C(=O)NC2CC2)cc1-c1ccc(C(=O)NCC(C)(C)C)cn1", "z-score", 0.488),
    ("CC(C)(C)c1cnc(CSc2cnc(NC(=O)C3CCNCC3)s2)o1", "z-score", -1.89),
    ("O=C(Cc1ccc(-c2ccc(OCCN3CCOCC3)cc2)cn1)NCc1ccccc1", "z-score", -0.489),
    ("C=C1C(=O)O[C@@H]2[C@H]3O[C@]3(C)CC/C=C(\\C)CC[C@@H]12", "z-score", -0.174),
    ("CCC(CO)Nc1nc(NCc2ccccc2)c2ncn(C(C)C)c2n1 (stereo not drawn)", "z-score", 0.0764),
    ("COc1ccc(CNC(=O)Nc2ncc([N+](=O)[O-])s2)cc1", "z-score", -0.202),
    ("Cn1cc(-c2ccc3ncc(Cc4ccc5ncccc5c4)n3n2)cn1", "z-score", 0.544),
    ("CC1(C)CC(=O)c2c(C(F)(F)F)nn(-c3ccc(C(N)=O)c(NC4CCC(OC(=O)CN)CC4)c3)c2C1 (stereo not drawn)", "z-score", -1.59),
]

These entries and their values trace back to PubChem BioAssay.
